B1: Caulobacter ParB omega fusion; a variant is named by its letters at X, in order, B8GW30 (parent)
chain: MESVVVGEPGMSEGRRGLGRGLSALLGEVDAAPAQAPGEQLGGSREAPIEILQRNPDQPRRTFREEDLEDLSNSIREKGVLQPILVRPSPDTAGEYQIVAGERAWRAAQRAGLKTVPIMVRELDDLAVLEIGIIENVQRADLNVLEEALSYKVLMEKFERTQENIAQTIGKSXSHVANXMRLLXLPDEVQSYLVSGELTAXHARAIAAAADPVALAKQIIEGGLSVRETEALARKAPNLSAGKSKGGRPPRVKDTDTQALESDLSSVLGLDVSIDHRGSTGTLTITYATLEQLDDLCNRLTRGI

Variants of: B1
protocol: one-hybrid fitness for binding NBS DNA (the Noc-binding site; scaled: cognate 1, non-cognate 0); higher = stronger binding
condition-parameters: with NBS DNA site
The full ranking holds about 81,000 sequences; the median of “one-hybrid fitness for binding NBS DNA” is about -0.1, and the highest 2% start at about 0.36. The list comes from a sample in which the highest values are over-represented; it also holds close analogues and randomly drawn sequences.
measurement-type: one-hybrid fitness for binding NBS DNA

Before answering, review these 3 worked examples.
>>> result_value("PELK")
"≤ 0.2"
>>> result_value("STQT")
"≤ 0.2"
>>> result_value("AFTK")
"≤ 0.2"

Q: Please give the measured one-hybrid fitness for binding NBS DNA for this variant: HFHL
Ans: ≤ 0.2

Q: Report one-hybrid fitness for binding NBS DNA for SDLG please.
Ans: ≤ 0.2

Q: I would be grateful if you could share the reported one-hybrid fitness for binding NBS DNA for CVRD .
Ans: ≤ 0.2

Q: Quick one: one-hybrid fitness for binding NBS DNA of QHRT ?
Ans: 0.681

Q: For MSNG , what is its reported one-hybrid fitness for binding NBS DNA?
Ans: ≤ 0.2

Q: Name the recorded one-hybrid fitness for binding NBS DNA for QLRT .
Ans: 0.668

Q: Which one-hybrid fitness for binding NBS DNA is listed for VDLS ?
Ans: ≤ 0.2

Q: Field request: one-hybrid fitness for binding NBS DNA | item: GSCV
Ans: ≤ 0.2
